Target: rat GluN1/GluN2C (Rattus norvegicus, UniProt P35439+Q00961)
Construct: expressed in transfected cells; host or cells: Xenopus laevis oocytes (cRNA injection, GluN1/GluN2 ratio 1:2)
Sequence (Q00961 20-1237, other chains not shown): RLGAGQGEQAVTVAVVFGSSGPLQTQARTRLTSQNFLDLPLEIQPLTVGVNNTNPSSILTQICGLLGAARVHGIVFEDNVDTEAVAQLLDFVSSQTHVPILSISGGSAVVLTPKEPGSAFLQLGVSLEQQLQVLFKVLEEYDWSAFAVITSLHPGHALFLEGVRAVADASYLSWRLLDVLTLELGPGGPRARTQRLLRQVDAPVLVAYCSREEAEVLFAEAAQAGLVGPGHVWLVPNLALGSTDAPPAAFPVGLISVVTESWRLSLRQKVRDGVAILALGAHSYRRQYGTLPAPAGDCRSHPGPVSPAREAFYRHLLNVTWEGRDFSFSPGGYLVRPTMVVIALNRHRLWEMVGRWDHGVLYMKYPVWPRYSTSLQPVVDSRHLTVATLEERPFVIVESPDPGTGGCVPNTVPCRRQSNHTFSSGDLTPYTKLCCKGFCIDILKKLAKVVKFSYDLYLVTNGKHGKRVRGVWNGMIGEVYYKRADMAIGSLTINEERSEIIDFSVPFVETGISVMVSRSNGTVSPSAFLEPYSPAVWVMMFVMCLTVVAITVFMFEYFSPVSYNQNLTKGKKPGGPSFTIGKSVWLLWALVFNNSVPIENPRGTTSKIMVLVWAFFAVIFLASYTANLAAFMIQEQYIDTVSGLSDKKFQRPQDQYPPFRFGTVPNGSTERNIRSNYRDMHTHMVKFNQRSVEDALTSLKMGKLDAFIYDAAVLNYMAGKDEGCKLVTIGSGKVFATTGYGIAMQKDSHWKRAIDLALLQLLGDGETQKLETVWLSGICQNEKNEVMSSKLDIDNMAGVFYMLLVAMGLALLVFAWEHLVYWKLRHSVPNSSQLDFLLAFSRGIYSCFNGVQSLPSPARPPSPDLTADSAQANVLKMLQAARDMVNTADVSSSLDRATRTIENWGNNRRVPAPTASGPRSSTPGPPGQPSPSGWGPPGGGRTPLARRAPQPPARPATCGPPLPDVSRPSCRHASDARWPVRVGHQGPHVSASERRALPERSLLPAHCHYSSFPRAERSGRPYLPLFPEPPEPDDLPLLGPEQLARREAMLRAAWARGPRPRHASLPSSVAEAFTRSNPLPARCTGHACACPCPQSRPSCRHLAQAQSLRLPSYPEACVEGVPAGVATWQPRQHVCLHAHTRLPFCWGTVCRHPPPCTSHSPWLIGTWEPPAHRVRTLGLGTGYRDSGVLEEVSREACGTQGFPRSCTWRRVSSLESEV
Assay: Two-electrode voltage-clamp recording in Xenopus laevis oocytes expressing recombinant rat GluN1/GluN2C
Format: cell-based
Settings: 30 μM test compound; current ratio, oocytes; read-out: I30 μM/Icontrol (mean ± SEM, %) GluN2C
measurement_name: remaining activity at 30 µM
Please report the result as a number followed by the unit.

Q: Please indicate remaining activity at 30 µM recorded for O=C(O)CC(F)(F)C(=O)N1N=C(c2c(-c3ccc(Br)cc3)c3ccsc3[nH]c2=O)CC1c1ccc(Cl)cc1 (stereo not shown)
Result: 22%

Q: Please indicate remaining activity at 30 µM recorded for O=C(CCc1nnn[nH]1)N1N=C(c2c(-c3ccc(Cl)cc3)c3ccccc3[nH]c2=O)CC1c1ccc(Cl)cc1 (stereo not shown)
Result: 2.3%

Q: Please indicate remaining activity at 30 µM recorded for Cc1[nH]c(=O)c(C2=NN(C(=O)C(F)(F)CC(=O)O)C(c3ccc(Cl)cc3)C2)c(-c2ccc(Cl)cc2)c1C (stereo not shown)
Result: 2.7%

Q: Please indicate remaining activity at 30 µM recorded for O=C(O)CC(F)(F)C(=O)N1N=C(c2cnccc2-c2ccccc2)CC1c1ccc(Cl)cc1 (stereo not shown)
Result: 91%

Q: Please indicate remaining activity at 30 µM recorded for O=C(O)CC(F)(F)C(=O)N1N=C(c2c(-c3ccc(Cl)cc3)cc[nH]c2=O)CC1c1ccc(Cl)cc1 (stereo not shown)
Result: 61%

Q: Please indicate remaining activity at 30 µM recorded for Cc1cc(-c2ccc(Cl)cc2)c(C2=NN(C(=O)C(F)(F)CC(=O)O)C(c3ccc(Cl)cc3)C2)c(=O)[nH]1 (stereo not shown)
Result: 29%

Q: Please indicate remaining activity at 30 µM recorded for O=C(O)CC(F)(F)C(=O)N1N=C(c2c(-c3ccc(Cl)cc3)c3ccsc3[nH]c2=O)CC1c1ccc(Cl)cc1 (stereo not shown)
Result: 6.9%

----------
Biological target: rat GluN1/GluN2D (Rattus norvegicus, UniProt P35439+Q62645)
Construct: expressed in transfected cells; host or cells: Xenopus laevis oocytes (cRNA injection, GluN1/GluN2 ratio 1:2)
Sequence (Q62645 28-1323, other chains not shown): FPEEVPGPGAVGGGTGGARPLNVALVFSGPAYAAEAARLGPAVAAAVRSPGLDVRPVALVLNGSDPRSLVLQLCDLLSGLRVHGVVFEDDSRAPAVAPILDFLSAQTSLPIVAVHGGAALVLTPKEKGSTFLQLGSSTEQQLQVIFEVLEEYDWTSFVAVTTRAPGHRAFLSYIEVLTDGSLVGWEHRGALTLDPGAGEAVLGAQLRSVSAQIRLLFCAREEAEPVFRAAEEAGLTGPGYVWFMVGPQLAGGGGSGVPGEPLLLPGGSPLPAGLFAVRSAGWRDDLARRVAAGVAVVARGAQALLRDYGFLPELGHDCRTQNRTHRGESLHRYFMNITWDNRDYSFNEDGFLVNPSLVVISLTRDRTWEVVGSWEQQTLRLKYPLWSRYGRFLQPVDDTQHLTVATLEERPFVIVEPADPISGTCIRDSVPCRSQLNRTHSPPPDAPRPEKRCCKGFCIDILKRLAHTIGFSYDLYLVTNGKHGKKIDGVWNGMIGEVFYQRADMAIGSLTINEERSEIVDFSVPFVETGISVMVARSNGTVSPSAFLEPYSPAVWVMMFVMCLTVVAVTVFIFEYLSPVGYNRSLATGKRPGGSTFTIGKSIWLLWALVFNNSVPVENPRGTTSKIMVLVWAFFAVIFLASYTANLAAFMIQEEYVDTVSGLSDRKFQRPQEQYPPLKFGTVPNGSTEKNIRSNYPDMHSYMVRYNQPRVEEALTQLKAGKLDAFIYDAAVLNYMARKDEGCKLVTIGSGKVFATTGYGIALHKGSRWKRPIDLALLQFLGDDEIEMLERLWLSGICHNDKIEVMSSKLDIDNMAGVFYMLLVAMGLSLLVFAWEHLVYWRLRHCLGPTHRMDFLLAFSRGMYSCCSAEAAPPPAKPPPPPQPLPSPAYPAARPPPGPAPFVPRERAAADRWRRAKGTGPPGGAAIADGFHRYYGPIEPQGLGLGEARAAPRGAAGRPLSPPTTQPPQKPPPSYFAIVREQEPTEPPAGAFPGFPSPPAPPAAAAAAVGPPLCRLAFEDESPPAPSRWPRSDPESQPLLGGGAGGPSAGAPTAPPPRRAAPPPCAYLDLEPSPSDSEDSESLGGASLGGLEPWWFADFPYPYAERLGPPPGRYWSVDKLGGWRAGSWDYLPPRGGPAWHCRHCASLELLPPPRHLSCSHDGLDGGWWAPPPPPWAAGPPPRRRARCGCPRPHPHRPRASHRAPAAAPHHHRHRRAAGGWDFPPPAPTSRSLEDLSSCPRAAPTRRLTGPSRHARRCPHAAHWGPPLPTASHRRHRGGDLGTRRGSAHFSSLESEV
Assay: Two-electrode voltage-clamp recording in Xenopus laevis oocytes expressing recombinant rat GluN1/GluN2D
Format: cell-based
Conditions: 30 μM test compound; current ratio, oocytes; read-out: I30 μM/Icontrol (mean ± SEM, %) GluN2D
measurement_name: remaining activity at 30 µM
Please report the result as a number followed by the unit.

Q: // fetch remaining activity at 30 µM for O=C(O)CC(F)(F)C(=O)N1N=C(c2c(-c3ccc(Cl)cc3)c3cccnc3[nH]c2=O)CC1c1ccc(Cl)cc1 (stereo not shown) ; system: rat GluN1/GluN2D (Rattus norvegicus, UniProt P35439+Q62645)
Result: 3.8%

Q: // fetch remaining activity at 30 µM for O=C(O)CC(F)(F)C(=O)N1N=C(c2c(-c3ccc(Cl)cc3)c3ccsc3[nH]c2=O)CC1c1ccc(Cl)cc1 (stereo not shown) ; system: rat GluN1/GluN2D (Rattus norvegicus, UniProt P35439+Q62645)
Result: 5.9%

Q: // fetch remaining activity at 30 µM for O=C(O)CC(F)(F)C(=O)N1N=C(c2cnccc2-c2ccc(Cl)cc2)CC1c1ccc(Cl)cc1 (stereo not shown) ; system: rat GluN1/GluN2D (Rattus norvegicus, UniProt P35439+Q62645)
Result: 27%

Q: // fetch remaining activity at 30 µM for O=C(O)CC(F)(F)C(=O)N1N=C(c2c(-c3ccc(Cl)cc3)cc[nH]c2=O)CC1c1ccc(Cl)cc1 (stereo not shown) ; system: rat GluN1/GluN2D (Rattus norvegicus, UniProt P35439+Q62645)
Result: 39%

Q: // fetch remaining activity at 30 µM for O=C(O)CC(F)(F)C(=O)N1N=C(c2c(-c3ccc(Br)cc3)c3ccsc3[nH]c2=O)CC1c1ccc(Cl)cc1 (stereo not shown) ; system: rat GluN1/GluN2D (Rattus norvegicus, UniProt P35439+Q62645)
Result: 19%

Q: // fetch remaining activity at 30 µM for Cc1cc(-c2ccc(Cl)cc2)c(C2=NN(C(=O)C(F)(F)CC(=O)O)C(c3ccc(Cl)cc3)C2)c(=O)[nH]1 (stereo not shown) ; system: rat GluN1/GluN2D (Rattus norvegicus, UniProt P35439+Q62645)
Result: 26%

Q: // fetch remaining activity at 30 µM for O=C(O)CC(F)(F)C(=O)N1N=C(c2cnccc2-c2ccccc2)CC1c1ccc(Cl)cc1 (stereo not shown) ; system: rat GluN1/GluN2D (Rattus norvegicus, UniProt P35439+Q62645)
Result: 74%

Q: // fetch remaining activity at 30 µM for Cc1[nH]c(=O)c(C2=NN(C(=O)C(F)(F)CC(=O)O)C(c3ccc(Cl)cc3)C2)c(-c2ccc(Cl)cc2)c1C (stereo not shown) ; system: rat GluN1/GluN2D (Rattus norvegicus, UniProt P35439+Q62645)
Result: 7.9%

Q: // fetch remaining activity at 30 µM for O=C(CCc1nnn[nH]1)N1N=C(c2c(-c3ccc(Cl)cc3)c3ccccc3[nH]c2=O)CC1c1ccc(Cl)cc1 (stereo not shown) ; system: rat GluN1/GluN2D (Rattus norvegicus, UniProt P35439+Q62645)
Result: 2.4%

Q: // fetch remaining activity at 30 µM for Cc1cc(-c2ccc(Cl)cc2)c(C2=NN(C(=O)C(F)(F)CC(=O)O)C(c3ccc(Cl)cc3)C2)cn1 (stereo not shown) ; system: rat GluN1/GluN2D (Rattus norvegicus, UniProt P35439+Q62645)
Result: 110%

----------
Assign IC50 to each entry below.
Target: rat GluN1/GluN2A (Rattus norvegicus, UniProt P35439+Q00959)
Construct: expressed in transfected cells; host or cells: Xenopus laevis oocytes (cRNA injection, GluN1/GluN2 ratio 1:2)
Sequence (Q00959 23-1464, other chains not shown): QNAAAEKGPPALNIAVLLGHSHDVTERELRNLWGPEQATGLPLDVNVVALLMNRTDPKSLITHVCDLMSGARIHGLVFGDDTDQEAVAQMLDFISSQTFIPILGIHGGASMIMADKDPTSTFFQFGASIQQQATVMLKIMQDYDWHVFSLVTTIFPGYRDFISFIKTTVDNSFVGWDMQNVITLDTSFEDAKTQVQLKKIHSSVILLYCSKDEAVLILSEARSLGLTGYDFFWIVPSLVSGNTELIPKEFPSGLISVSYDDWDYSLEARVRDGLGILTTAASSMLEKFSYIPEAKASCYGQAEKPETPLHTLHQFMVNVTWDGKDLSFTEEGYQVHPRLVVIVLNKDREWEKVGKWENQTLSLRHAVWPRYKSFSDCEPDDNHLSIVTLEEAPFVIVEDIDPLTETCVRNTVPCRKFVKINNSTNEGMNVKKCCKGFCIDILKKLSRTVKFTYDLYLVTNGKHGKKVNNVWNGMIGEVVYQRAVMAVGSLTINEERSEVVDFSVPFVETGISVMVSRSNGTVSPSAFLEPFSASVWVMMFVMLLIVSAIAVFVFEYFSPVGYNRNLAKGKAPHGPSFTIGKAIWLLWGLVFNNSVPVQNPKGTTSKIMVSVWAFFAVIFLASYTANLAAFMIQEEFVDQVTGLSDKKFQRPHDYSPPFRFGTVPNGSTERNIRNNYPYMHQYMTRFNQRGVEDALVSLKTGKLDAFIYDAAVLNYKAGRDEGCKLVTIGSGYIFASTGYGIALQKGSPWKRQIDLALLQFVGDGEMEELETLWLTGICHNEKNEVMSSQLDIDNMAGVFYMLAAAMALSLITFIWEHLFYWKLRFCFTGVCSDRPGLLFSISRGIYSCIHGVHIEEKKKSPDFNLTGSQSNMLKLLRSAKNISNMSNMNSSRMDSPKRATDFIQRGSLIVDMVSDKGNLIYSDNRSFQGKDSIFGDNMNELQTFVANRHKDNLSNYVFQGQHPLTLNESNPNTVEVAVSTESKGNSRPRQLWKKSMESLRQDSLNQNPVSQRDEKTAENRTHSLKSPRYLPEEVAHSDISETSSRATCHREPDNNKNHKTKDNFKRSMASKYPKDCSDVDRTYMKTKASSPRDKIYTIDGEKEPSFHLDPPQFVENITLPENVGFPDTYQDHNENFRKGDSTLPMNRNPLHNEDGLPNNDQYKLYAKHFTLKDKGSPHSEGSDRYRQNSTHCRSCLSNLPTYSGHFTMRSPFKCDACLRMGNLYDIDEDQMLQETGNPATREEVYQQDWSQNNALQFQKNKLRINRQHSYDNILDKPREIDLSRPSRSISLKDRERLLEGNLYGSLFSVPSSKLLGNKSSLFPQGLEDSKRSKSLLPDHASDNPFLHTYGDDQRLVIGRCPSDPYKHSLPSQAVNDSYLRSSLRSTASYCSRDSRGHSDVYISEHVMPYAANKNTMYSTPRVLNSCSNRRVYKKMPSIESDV
Test: Two-electrode voltage-clamp recording in Xenopus laevis oocytes expressing recombinant rat GluN1/GluN2A
Format: cell-based
Details: Tables 1 and 2; read-out: IC50 (μM) [95% Confidence Interval] GluN2A
Unit µM implied. Number only.

Q: Please indicate IC50 recorded for Cc1[nH]c(=O)c(C2=NN(C(=O)C(F)(F)CC(=O)O)C(c3ccc(Cl)cc3)C2)c(-c2ccc(Cl)cc2)c1C (stereo not drawn)
Result: 42

Q: Please indicate IC50 recorded for O=C(O)CC(F)(F)C(=O)N1N=C(c2c(-c3ccc(Cl)cc3)c3cccnc3[nH]c2=O)CC1c1ccc(Cl)cc1 (stereo not drawn)
Result: 45

Q: Please indicate IC50 recorded for O=C(O)CC(F)(F)C(=O)N1N=C(c2c(-c3ccc(Br)cc3)c3ccsc3[nH]c2=O)CC1c1ccc(Cl)cc1 (stereo not drawn)
Result: 11

----------
Biological target: rat GluN1/GluN2D (Rattus norvegicus, UniProt P35439+Q62645)
Construct: expressed in transfected cells; host or cells: Xenopus laevis oocytes (cRNA injection, GluN1/GluN2 ratio 1:2)
Test: Two-electrode voltage-clamp recording in Xenopus laevis oocytes expressing recombinant rat GluN1/GluN2D
Format: cell-based
Settings: Tables 1 and 2; read-out: IC50 (μM) [95% Confidence Interval] GluN2D
measurement_name: log10 IC50 (log10 of the value in µM)
Quick note: numbers are log10 of IC50, with µM as the unit.

Q: Please indicate log10 IC50 recorded for O=C(O)CC(F)(F)C(=O)N1N=C(c2c(-c3ccc(Cl)cc3)c3cccnc3[nH]c2=O)CC1c1ccc(Cl)cc1 (centres unmarked) [Compound 88]
Result: 0.11

Q: Please indicate log10 IC50 recorded for O=C(O)CC(F)(F)C(=O)N1N=C(c2cnccc2-c2ccc(Cl)cc2)CC1c1ccc(Cl)cc1 (centres unmarked) [Compound 29]
Result: 1.08

Q: Please indicate log10 IC50 recorded for Cc1cc(-c2ccc(Cl)cc2)c(C2=NN(C(=O)C(F)(F)CC(=O)O)C(c3ccc(Cl)cc3)C2)c(=O)[nH]1 (centres unmarked) [Compound 55]
Result: 1.08

Q: Please indicate log10 IC50 recorded for Cc1[nH]c(=O)c(C2=NN(C(=O)C(F)(F)CC(=O)O)C(c3ccc(Cl)cc3)C2)c(-c2ccc(Cl)cc2)c1C (centres unmarked) [Compound 56]
Result: 0.41

Q: Please indicate log10 IC50 recorded for O=C(O)CC(F)(F)C(=O)N1N=C(c2c(-c3ccc(Cl)cc3)cc[nH]c2=O)CC1c1ccc(Cl)cc1 (centres unmarked) [Compound 28]
Result: 1.30

Q: Please indicate log10 IC50 recorded for O=C(O)CC(F)(F)C(=O)N1N=C(c2c(-c3ccc(Cl)cc3)c3ccncc3[nH]c2=O)CC1c1ccc(Cl)cc1 (centres unmarked) [Compound 120]
Result: -0.10

Q: Please indicate log10 IC50 recorded for O=C(O)CC(F)(F)C(=O)N1N=C(c2c(-c3ccc(Br)cc3)c3ccsc3[nH]c2=O)CC1c1ccc(Cl)cc1 (centres unmarked) [57(a)]
Result: -0.37

Q: Please indicate log10 IC50 recorded for O=C(O)CC(F)(F)C(=O)N1N=C(c2c(-c3ccc(Cl)cc3)c3ccsc3[nH]c2=O)CC1c1ccc(Cl)cc1 (centres unmarked) [57(b)]
Result: -0.60

Where do the numbers come from? From patent US20240217979A1.
